# corrected association response listing for each entry below
# System tested: T1, human 5T4ECDHis (mature protein of SEQ ID NO: 99) (human, UniProt Q13641 32-355)
# T1 construct: ECD of human 5T4 (aa 1-355 of Uniprot Q13641) with C-terminal His tag; residues 1-31 are the signal peptide; also called ECD of human 5T4 with a C-terminal His tag
# T1 sequence: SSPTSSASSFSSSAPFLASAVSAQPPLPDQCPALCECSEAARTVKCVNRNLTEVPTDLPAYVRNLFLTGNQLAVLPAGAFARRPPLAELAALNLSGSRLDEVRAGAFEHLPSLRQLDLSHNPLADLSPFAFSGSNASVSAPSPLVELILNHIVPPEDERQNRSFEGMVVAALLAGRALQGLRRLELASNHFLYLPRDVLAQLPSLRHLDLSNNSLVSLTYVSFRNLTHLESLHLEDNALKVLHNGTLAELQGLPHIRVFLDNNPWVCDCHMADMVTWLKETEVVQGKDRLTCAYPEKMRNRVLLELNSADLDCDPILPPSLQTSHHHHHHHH
# Protocol description: BLI cross-block; competitor (immobilised): IgG1-5T4-059-FEAR
Output spec: scalar in nm, unitless text.

Task item: Retrieve corrected association response measured for IgG1-5T4-H8-FEAR (antibody, V domains shown, Based on 5T4 antibody H8 from Wyeth (WO 2007/106744); IgG1 with L234F, L235E, D265A, K409R (FEAR); also called IgG1-5T4-HS-FEAR; IgG1-5T4-H8-FEAR-FITC) VH: EVQLQQSGPDLVKPGASVKISCKASGYSFTGYYMHWVKQSHGKSLEWIGRINPNNGVTLYNQKFKDKAILTVDKSSTTAYMELRSLTSEDSAVYYCARSTMITNYVMDYWGQVTSVTVSS VL: SIVMTQTPTFLLVSAGDRVTITCKASQSVSNDVAWYQQKPGQSPTLLISYTSSRYAGVPDRFIGSGYGTDFTFTISTLQAEDLAVYFCQQDYNSPPTFGGGTKLEIK and print it.
Reply: 0.01

Task item: Retrieve corrected association response measured for IgG1-5T4-226-FEAR (antibody, V domains shown, Monospecific, bivalent human IgG1 kappa with L234F, L235E, D265A, K409R (FEAR); also called IgG1-5T4-226-FEAR-FITC) VH: QVQLQQWGAGLLKPSETLSLTCAVYGGSFSGYYWSWIRQPPGKGLEWIGEIDHSGSTNYNPSLKSRVTISVDTSKNQFSLKLSSVTAADTAVYYCAAWFGELWDYYYGMDVWGQGTTVTVSS VL: EIVLTQSPATLSLSPGERATLSCRASQSVSSFLAWYQQKPGQAPRLLIYDASNRATGIPARFSGSGSGTDFTLTISSLEPEDFAVYYCQQRSNWPLTFGQGTRLEIK and print it.
Reply: 0.01

Task item: Retrieve corrected association response measured for IgG1-5T4-127-FEAR (antibody, V domains shown, Monospecific, bivalent human IgG1 kappa with L234F, L235E, D265A, K409R (FEAR)) VH: EVQLLESRGGLVQPGGSLRLSCAASGFTFSSYAMSWVRQAPGKGLEWVSTISGSGGSTYYADSVKGRFTISRDNSKKTLYLQMNSLRAEDTAVYYCAKDWGSGSYPAEYFQHWGQGTLVTVSS VL: EIVLTQSPATLSLSPGERATLSCRASQSVSSYLAWYQQKPGQAPRLLIYDASNRATGIPARFSGSGSGTDFTLTISSLEPEDFAVYYCQQRSNWLMYTFGQGTKLEIK and print it.
Reply: -0.1

For the next question, use this binder.
Task item: Retrieve corrected association response measured for IgG1-5T4-A1-F405L (antibody, V domains shown, Variable region of A1 of WO2007106744 in a human IgG1 backbone with F405L; also called surrogate A1 antibody) VH: QIQLVQSGPELKKPGETVKISCKASGYTFTNFGMNWVKQGPGEGLKWMGWINTNTGEPRYAEEFKGRFAFSLETTASTAYLQINNLKNEDTATYFCARDWDGAYFFDYWGQGTTLTVSS VL: SIVMTQTPKFLLVSAGDRVTITCKASQSVSNDVAWYQQKPGQSPKLLINFATNRYTGVPNRFTGSGYGTDFTFTISTVQAEDLALYFCQQDYSSPWTFGGGTKLEIK and print it.
Reply: 0.96
